For each record, write down the corresponding half-life at 25 µM.
experiment: Half life in human liver microsomes at 25 uM by LC-MS analysis; assay type: ADME

Here is how some compounds turned out for half-life at 25 µM.
CCOC(C(=O)Nc1ccc(Cl)cc1Cl)c1ccnc2ccccc12 (centres undefined) | > 60 min
CCOC(C(=O)Nc1ccc(Cl)cc1Cl)c1cnc2ccccc2c1 (centres undefined) | > 60 min
CCOC(C(=O)Nc1cnc2ccccc2c1)c1cc(Cl)ccc1Cl (centres undefined) | 27 min

Let's switch to this compound now.
Task: // lookup half-life at 25 µM for CCOC(C(=O)Nc1ccnc2ccccc12)c1ccc(Cl)c(Cl)c1 (centres undefined)
Result: 27 min

---

For each record, write down the corresponding metabolised at 0.5 h, 25 µM.
assay: Bio-transformation in human liver microsomes at 25 uM after 30 mins by LC-MS analysis; assay type: ADME; conditions: read-out: Drug metabolism
Answers are plain numbers, in %.

O=C(/C=C/c1ccc(Cl)cc1)c1ccc(Cl)cc1 [4',4-DICHLOROCHALCONE] | 85

Hi! Can you tell me metabolised at 0.5 h, 25 µM for each of these compounds?
1. O=C(/C=C/c1cnc2ccccc2c1)c1cc(Cl)ccc1Cl
2. O=C(/C=C/c1ccnc2ccccc12)c1ccc(Cl)c(Cl)c1
3. O=C(/C=C/c1ccnc2ccccc12)c1cc(Cl)ccc1Cl
4. CCOC(C(=O)Nc1ccc(Cl)cc1)c1ccc(Cl)cc1 (stereo not given)

Result:
100
100
100
0

---

test system: Plasmodium falciparum; assay: Resistant index, ratio of IC50 for chloroquine, quinine and pyrimethamine-resistant Plasmodium falciparum W2 to IC50 for mefloquine-resistant Plasmodium falciparum D6; type: functional
observable: Ratio IC50

Here is how some compounds turned out for Ratio IC50.
CCOC(C(=O)Nc1cccc2cccnc12)c1ccc(Cl)c(Cl)c1 (stereo not drawn) | 0.84
CCOC(C(=O)Nc1ccc(Cl)c(Cl)c1)c1ccnc2ccccc12 (stereo not drawn) | 0.8
CCOC(C(=O)Nc1ccc(Cl)cc1)c1ccc(Cl)cc1 (stereo not drawn) | 1.5
CCOC(C(=O)Nc1ccc(Cl)c(Cl)c1)c1cnc2ccccc2c1 (stereo not drawn) | 0.71
CCOC(C(=O)Nc1ccc(Cl)cc1Cl)c1ccnc2ccccc12 (stereo not drawn) | 0.26
CCOC(C(=O)Nc1ccc(Cl)cc1Cl)c1cnc2ccccc2c1 (stereo not drawn) | 0.43

Hi! Can you tell me Ratio IC50 for each of these compounds?
1. CCOC(C(=O)Nc1ccnc2ccccc12)c1cc(Cl)ccc1Cl (stereo not drawn)
2. CCOC(C(=O)Nc1cnc2ccccc2c1)c1cc(Cl)ccc1Cl (stereo not drawn)
3. CCOC(C(=O)Nc1cnc2ccccc2c1)c1ccc(Cl)cc1Cl (stereo not drawn)
4. O=C(/C=C/c1ccc(Cl)cc1)c1ccc(Cl)cc1
5. CCOC(C(=O)Nc1cc(Cl)ccc1Cl)c1ccnc2ccccc12 (stereo not drawn)
6. CCOC(C(=O)Nc1ccc2ccccc2n1)c1ccc(Cl)cc1Cl (stereo not drawn)

Result:
1. 1.2
2. 1.4
3. 2.7
4. 2
5. 1
6. 0.88

Hi! Can you tell me Ratio IC50 for each of these compounds?
1. CCOC(C(=O)Nc1cccc2ncccc12)c1cc(Cl)ccc1Cl (stereo not drawn)
2. CCOC(C(=O)Nc1cc(Cl)ccc1Cl)c1cnc2ccccc2c1 (stereo not drawn)
3. CCOC(C(=O)Nc1ccnc2ccccc12)c1ccc(Cl)c(Cl)c1 (stereo not drawn)
4. CCOC(C(=O)Nc1ccc2ccccc2n1)c1ccc(Cl)c(Cl)c1 (stereo not drawn)
5. CCOC(C(=O)Nc1ccnc2ccccc12)c1ccc(Cl)cc1Cl (stereo not drawn)
6. CCOC(C(=O)Nc1ccc2ncccc2c1)c1ccc(Cl)cc1Cl (stereo not drawn)

Result:
1.4
1.1
0.53
0.76
1
0.92

---

test: Half life in mouse liver microsomes at 25 uM by LC-MS analysis; assay type: ADME
observable: half-life at 25 µM (min)
Numbers only, in min.

CCOC(C(=O)Nc1cnc2ccccc2c1)c1cc(Cl)ccc1Cl (centres undefined) | 9

Task: // lookup half-life at 25 µM for CCOC(C(=O)Nc1ccnc2ccccc12)c1ccc(Cl)c(Cl)c1 (centres undefined)
Result: 30
